- TEST DETAILS: Feed consumption during 28-day oral supplementation
- Format: in vivo, Swiss Albino mice
- EXPERIMENTAL CONDITIONS: Week 3; mean ± SD, n = 8 mice
Would you mind telling me the reported feed consumption of each entry?
Give bare numbers, in grams.

For every listed record, write down its feed consumption.
1. Cn1c(=O)[nH]c2ncn(C)c2c1=O
2. C[N+](C)(C)CCOP(=O)([O-])OC[C@H](O)CO
3. CCNC(=O)CC[C@H](N)C(=O)O

[46.00, 45.49, 45.30]

GET /values?readout=feed consumption&item= NCCS(=O)(=O)O
45.21

* * *

- TEST DETAILS: Feed consumption during 28-day oral supplementation
- Format: in vivo, Swiss Albino mice
- EXPERIMENTAL CONDITIONS: Week 4; mean ± SD, n = 8 mice
EXPERIMENTAL READOUT: feed consumption (grams)
Give bare numbers, in grams.

SMILES INPUT: C[N+](C)(C)CCOP(=O)([O-])OC[C@H](O)CO
UNIT OF MEASUREMENT: grams
feed consumption: 47.54
//
SMILES INPUT: NCCS(=O)(=O)O
UNIT OF MEASUREMENT: grams
feed consumption: 47.36
//
SMILES INPUT: CCNC(=O)CC[C@H](N)C(=O)O
UNIT OF MEASUREMENT: grams
feed consumption: 47.60

Query compound follows.
GET /values?readout=feed consumption&item= Cn1c(=O)[nH]c2ncn(C)c2c1=O
48.34

* * *

- TEST DETAILS: Clinical biochemical profiles of serum
- Format: in vivo, Swiss Albino mice
- EXPERIMENTAL CONDITIONS: serum at end of 28-day treatment; mean ± SD, n = 8
EXPERIMENTAL READOUT: ALT

Study these solved cases before continuing.
MOLECULE: Cn1c(=O)[nH]c2ncn(C)c2c1=O [Paraxanthine, 1,7-dimethylxanthine]
RECORDED RESULT: 23.88 ± 0.99 U/L

MOLECULE: CCNC(=O)CC[C@H](N)C(=O)O [L-Theanine, L-theanine]
RECORDED RESULT: 24.25 ± 1.28 U/L

MOLECULE: NCCS(=O)(=O)O [Taurine, taurine]
RECORDED RESULT: 25.00 ± 1.07 U/L

GET /values?readout=ALT&item= C[N+](C)(C)CCOP(=O)([O-])OC[C@H](O)CO [Alpha-GPC, L-alpha glycerylphosphorylcholine]
23.63 ± 1.51 U/L

* * *

- TEST DETAILS: Clinical biochemical profiles of serum
- Type: in vivo, Swiss Albino mice
- EXPERIMENTAL CONDITIONS: serum at end of 28-day treatment; mean ± SD, n = 8
- Procedure: After one week of acclimation, the animals were randomly divided by body weight into five groups (n=8 per group in each test) for oral treatment once a day, at approximately same time each day (±1 hour), for 28 consecutive days: (1) vehicle control; (2) paraxanthine (3) L-theanine; […] The dose administered to the mice was calculated using US Food and Drug Administration for human equivalence doses (HED), assuming a human weight of 60 kg. […]
EXPERIMENTAL READOUT: Creatinine (mg/dL)
Numbers only, in mg/dL.

Study these solved cases before continuing.
COMPOUND: Cn1c(=O)[nH]c2ncn(C)c2c1=O [Paraxanthine, 1,7-dimethylxanthine]
Creatinine / mg/dL: 0.86

COMPOUND: NCCS(=O)(=O)O [Taurine, taurine]
Creatinine / mg/dL: 0.93

COMPOUND: CCNC(=O)CC[C@H](N)C(=O)O [L-Theanine, L-theanine]
Creatinine / mg/dL: 0.89

Query compound follows.
GET /values?readout=Creatinine&item= C[N+](C)(C)CCOP(=O)([O-])OC[C@H](O)CO [Alpha-GPC, L-alpha glycerylphosphorylcholine]
0.90
